system: Escherichia coli CCARM 1238; format: cell-based
Residues, ends and D or L forms follow the SMILES beside them.
attribute measured: Minimum growth inhibitory concentration (µM)
The response must be a number in µM with no trailing unit.

Challenge: Sample CC[C@H](C)[C@H](NC(=O)[C@H](Cc1c[nH]c2ccccc12)NC(=O)[C@H](CCCCN)NC(=O)[C@@H](NC(=O)[C@@H](N)CCCCN)[C@@H](C)CC)C(=O)N[C@@H](CC(C)C)C(=O)N[C@@H](CCCCN)C(=O)N[C@@H](Cc1ccc(O)cc1)C(=O)N[C@@H](Cc1c[nH]c2ccccc12)C(=O)N[C@@H](CCCCN)C(=O)N[C@@H](Cc1c[nH]c2ccccc12)C(=O)N[C@@H](CO)C(N)=O [Myxinidin 2, KIKWILKYWKWS-NH2] (H-KIKWILKYWKWS-NH2; N-terminus assumed) — what was its Minimum growth inhibitory concentration?
Response given: 4

Challenge: Sample CC[C@H](C)[C@H](NC(=O)[C@H](Cc1c[nH]c2ccccc12)NC(=O)[C@H](CCCNC(=N)N)NC(=O)[C@@H](NC(=O)[C@@H](N)CCCNC(=N)N)[C@@H](C)CC)C(=O)N[C@@H](CC(C)C)C(=O)N[C@@H](CCCNC(=N)N)C(=O)N[C@@H](Cc1ccc(O)cc1)C(=O)N[C@@H](Cc1c[nH]c2ccccc12)C(=O)N[C@@H](CCCNC(=N)N)C(=O)N[C@@H](Cc1c[nH]c2ccccc12)C(=O)N[C@@H](CO)C(N)=O [Myxinidin 3, RIRWILRYWRWS-NH2] (H-RIRWILRYWRWS-NH2; N-terminus assumed) — what was its Minimum growth inhibitory concentration?
Response given: 2
